# assayRemarks: Probe fluorescence ratio response to linolenic acid relative to ADIFAB2
# Format: binding
# assaySetup: response relative to ADIFAB2
readoutKind: DR/DR LNA

>>> experimentalresult("72T 73V 74N (protein, listed as Rattus norvegicus, PEPTIDE (1)...(131) wild-type rat intestinal fatty acid binding protein) AFDGTWKVDRNENYEKFMEKMGINVVKRKLGAHDNLKLTITQEGNKFTVKESSNFRNIDVVFELGVDFAYSTVNGTELTGTWTMEGNKLVGKFKRVDNGKELIAVREISGNELIQTYTYEGVEAKRIFKKE")
2.362
>>> experimentalresult("47Y2, L72A (protein, listed as Rattus norvegicus, PEPTIDE (1)...(131) wild-type rat intestinal fatty acid binding protein) AFDGTWKVDRNENYEKFMEKMGINVVKRKLGAHDNLKLTITQEGNKYTVKESSNFRNIDVVFELGVDFAYSAADGTELTGTWTMEGNKLVGKFKRVDNGKELIAVREISGNELIQTYTYEGVEAKRIFKKE")
1.40
